Just for reference, PubChem BioAssay (NCI) is where these values come from.

tested on: DLD-1 colon; experiment: NCI tumour cell line growth inhibition, 48 h
Readout Kind: TGI

TGI for CCC12C=CCN3CC[C@]4(C(=C(C(=O)OC)[C@@H]1Nc1ncnc5c1ncn5C1OC(COC(C)=O)C(OC(C)=O)C1OC(C)=O)Nc1ccccc14)C32 (some centres not stated) is 6.22 µM

TGI for N#Cc1c([N+](=O)[O-])cc(C(F)(F)F)cc1[N+](=O)[O-] is 16.7 µM

TGI for CC(C)c1ccc2c(c1)CCC1C(C)(C)[C@@H](O)CC[C@]21C (some centres not stated) is > 100 µM

TGI for [N-]=[N+]=Nc1ccc(S(=O)(=O)Oc2cc(OS(=O)(=O)c3ccc(N=[N+]=[N-])cc3)cc(OS(=O)(=O)c3ccc(N=[N+]=[N-])cc3)c2)cc1 is > 100 µM

TGI for COC1CCC(=C2C(=O)OC(C)(C)OC2=O)N1 (configuration not stated) is > 100 µM

TGI for O=c1[nH]nc(-c2ccccc2)c(-c2ccccc2)c1-n1nc(-c2ccccc2)c2ccccc2c1=O is > 100 µM

TGI for CN(C)N=Nc1ccc([N+](=O)[O-])cc1C(N)=O is > 100 µM

###

tested on: A498 renal; experiment: NCI tumour cell line growth inhibition, 48 h; in the data active = GI50 below about 0.43 µM; inactive = the rest
Write down the outcome that applies. Available outcomes: active, inactive

# count of solved cases: 2
• O=C(Nc1ccc(Cl)cc1)NS(=O)(=O)c1ccc2c(c1)CCC2 = inactive
• CC[C@]1(O)C[C@@H]2CN(Cc3c([nH]c4ccccc34)[C@@](C(=O)OC)(c3cc4c(cc3OC)N(C)[C@H]3[C@@](O)(C(=O)OC)[C@H](OC(C)=O)[C@]5(CC)[C@@H]6C[C@@H]6CN6CC[C@]43[C@@H]65)C2)C1 = active

From here, focus on the item given below.
**Query** Record lookup: outcome of this test for O=C(CCCCCCc1nc2ccc(Br)cc2[nH]1)NO ?
**Result** inactive

###

tested on: LXFL 529 NSCLC; test: NCI tumour cell line growth inhibition, 48 h
Readout Kind: TGI

Example cases with answers are listed next.
- CC(=O)OC1COC(N2C(=O)C(=O)c3c(C)cc(Cl)nc32)C(OC(C)=O)C1OC(C)=O (centres undefined): > 100 µM
- CCCCNC(=S)Nn1c(-c2ccccc2)nc2ccccc2c1=O: > 100 µM
- O=C(CC1Sc2ccccc2NC1=O)Nc1cccc(Cl)c1 (centres undefined): > 100 µM
- COC(=O)C1=CC(=O)C(C(=O)Nc2ccc(OC)cc2)C(c2ccccc2)O1 (centres undefined): 62.4 µM
- Cc1c(C(=O)/C=C/c2ccco2)[n+](=O)c2ccccc2n1[O-]: > 100 µM
- COc1ccc(NC(=O)CC/C(CC(=O)c2ccco2)=N/Nc2ccc([N+](=O)[O-])cc2[N+](=O)[O-])cc1: > 100 µM
- C[N+](C)(C)CC(=O)N/N=C(/C=C/c1ccccc1)CC1OC(=O)c2ccccc21 (centres undefined): > 100 µM
- COc1c(O)c2ccccc2c2cc(O)ccc12: 9.9 µM

Response field TGI (LXFL 529 NSCLC) for item CCc1nc2ccccc2c(=O)n1/N=C(\N=Nc1ccc(Cl)cc1)c1ccc(N(C)C)cc1 : > 100 µM

###

test system: NCI-H226 lung; assay: NCI tumour cell line growth inhibition, 48 h
The reader will find reported TGI values listed item by item below.

Example cases with answers are listed next.
* COc1ccc2c(c1)OCC1(O)Cc3ccccc3OC21 (stereo unspecified) | > 100 µM
* COc1c2occc2c(OC)c2c(=O)c(S(=O)(=O)NC(=O)Nc3ccc(Cl)cc3)coc12 | > 10 µM
* COc1ccc(C2SC(N)=Nc3c2c(C)nn3C(=O)c2ccncc2)cc1 (stereo unspecified) | > 100 µM
* C1=C[C@@H]2c3ccc4cnccc4c3NC[C@@H]2C1 | > 100 µM
* O=S(=O)(c1cc(Cl)ccc1Cl)N1CCN(S(=O)(=O)c2cc(Cl)ccc2Cl)CC1 | > 100 µM

TGI for CC(=O)NNc1nc(C)c(C(/C=C/c2ccc(/C=C/C(=N\NC(=O)c3ccncc3)c3sc(NNC(C)=O)nc3C)cc2)=N/NC(=O)c2ccncc2)s1 is > 100 µM

###

The reader will find reported TGI values listed item by item below.
system: IGROV1 ovarian; assay: NCI tumour cell line growth inhibition, 48 h

• CCCCc1ccc2nc(NC(=O)OC)[nH]c2c1 = > 78.7 µM

TGI for C=Nc1ccc([N+](=O)[O-])cc1 is > 100 µM

TGI for Cc1c(C(=O)/C=C/c2ccco2)[n+](=O)c2ccccc2n1[O-] is > 100 µM

TGI for C=CCCc1cc(OC)ccc1CN(C)C(C)(C)CO is > 100 µM

TGI for COc1ccc(C(=O)O/N=C2\CCCC\C2=C/c2ccccc2)cc1 is > 100 µM

TGI for COc1ccc(CN2CCc3c(Cl)nc(N)nc3C2=O)c(OC)c1 is 26.9 µM

###

The reader will find reported TGI values listed item by item below.
tested on: ACHN renal; test: NCI tumour cell line growth inhibition, 48 h

Example cases with answers are listed next.
- COc1c(-c2cc(C)c(Cl)c(=O)[nH]2)c(O)c(OC)c2occc12: > 100 µM
- CC(=O)NC1(C)CCC(C(C)(C)NC(C)=O)CC1 (stereo not drawn): > 100 µM

// next item, TGI requested
TGI for Cc1cc(NS(=O)(=O)c2ccc(NC(=O)c3ccc4nc5ccccc5c(Nc5ccc(S(=O)(=O)N=C(N)N)cc5)c4c3)cc2)no1 is 26.4 µM

###

tested on: MOLT-4 leukemia; test: NCI tumour cell line growth inhibition, 48 h
Readout Kind: TGI (µM)
Only the number, expressed in µM, is required.

- N#Cc1c([N+](=O)[O-])cc(C(F)(F)F)cc1[N+](=O)[O-]: 4.95

// next item, TGI requested
TGI for CN(NC(=O)/C(=C/c1ccc(O)cc1)NC(=O)c1ccccc1)c1ccnc2cc(Cl)ccc12 is 43

###

test system: ACHN renal; assay: NCI tumour cell line growth inhibition, 48 h
Readout Kind: TGI

* C=CCCc1cc(OC)ccc1CN(C)C(C)(C)CO | > 100 µM
* COC(=O)C(=O)C(C#N)c1cccc2ccccc12 (stereo unspecified) | > 100 µM
* CCc1nc2ccccc2c(=O)n1/N=C(\N=Nc1ccc(Cl)cc1)c1ccc(N(C)C)cc1 | > 100 µM
* Cc1nc2c(cnn2-c2ccnc3c(C(F)(F)F)cccc23)c(=O)o1 | > 100 µM
* O=P(O)(O)OC1C(OP(=O)(O)O)C(OP(=O)(O)O)C(OP(=O)(O)O)C(OP(=O)(O)O)C1OP(=O)(O)O (stereo unspecified) | > 2000 µM

TGI for CCc1cc(C(N)=O)ccc1-n1nc(C(C)C)c2c(-n3cnc(-c4cnn(C)c4)c3)ccnc21 is > 100 µM

TGI for CCNC(=S)N/N=C/c1cc(OC)ccc1O is > 100 µM

TGI for C=C1C(=O)OC(CCCCCCCC)C1C(=O)O (stereo unspecified) is 31 µM

###

tested on: SF-295 CNS; experiment: NCI tumour cell line growth inhibition, 48 h
The reader will find reported TGI values listed item by item below.

* CC1(C)C2CCC1(CS(=O)(=O)Nc1ccccc1)C(=O)C2 (centres undefined) | > 100 µM
* CCSc1ncnc2c(C3OC(CO)C(O)C3O)nsc12 (centres undefined) | > 100 µM
* CCS[C@H]1NC(=O)C1[C@H](C)O[Si](C)(C)C(C)(C)C (some centres undefined) | > 100 µM
* COc1ccc2oc(S(=O)(=O)N3CC(CCl)c4ccc([N+](=O)[O-])cc43)cc2c1 (centres undefined) | 0.196 µM
* Cc1ncc(C(=O)Nc2ccc(CN3CCN(C)CC3)c(C(F)(F)F)c2)cc1C#Cc1c(N)ncc2ccc(C#N)cc12 | > 50 µM

TGI for COC(=O)c1c(OC(C)=O)ccc2c1c1c(OC(C)=O)c3ccccc3c(OC(C)=O)c1n2Cc1cc(OC)cc(OC)c1 is > 100 µM

TGI for CC(C)NC(=O)OCc1nnn2c1C(OC(=O)NC(C)C)CC2 (centres undefined) is > 100 µM

TGI for COC(c1ccsc1)C(C#N)(C#N)N=Cc1ccsc1 (centres undefined) is 34.9 µM

TGI for COc1ccc(NC(=O)c2ccc(NC3=C(Cl)C(=O)N(Cc4ccccc4)C3=O)cc2)cc1 is 10.4 µM

TGI for O=C(c1ccccc1)c1nnn(Cc2cccc(Cl)c2)c1C(=O)c1ccccc1 is > 100 µM

TGI for CCCC(Sc1nc(N)nc2nc[nH]c12)C(=O)O (centres undefined) is > 100 µM

TGI for COc1ccc(/C=N\N2CC(=O)N3C4C=CC(CC4)N3C2=O)cc1 (centres undefined) is > 100 µM

TGI for N#Cc1c([N+](=O)[O-])cc(C(F)(F)F)cc1[N+](=O)[O-] is 10.3 µM

TGI for CCCCC1(N=[N+]=[N-])C(=O)c2cccc3c2N(CCC3)C1=O (centres undefined) is > 100 µM

TGI for COc1ccc(C2SC(N)=Nc3c2c(C)nn3C(=O)c2ccncc2)cc1 (centres undefined) is > 100 µM

TGI for CC1CN(CCO)CC(C)O1 (centres undefined) is > 100 µM
